# IC50 per entry
Target: UniProt:P08684
Test: CYP3A4 inhibition, human liver microsomes, midazolam
Type: in vitro ADME
Settings: human liver microsomes
Experimental: Six test compound concentrations (0.05, 0.25, 0.5, 2.5, 5, 25 μM in DMSO; final DMSO concentration 0.26%) were incubated with human liver microsomes (0.25 mg/mL) and NADPH (1 mM) in the presence of the probe substrate midazolam (2.5 μM) for 5 min at 37° C. […] For the CYP1A incubations, the reactions were terminated by the addition of methanol, and the formation of the metabolite, resorufin, was monitored by fluorescence (excitation wavelength=535 nm, emission wavelength=595 nm). […]
MEASURE NAME: IC50 (µM)

> print(dat)
                                   compound  measure.name  test.value
1  CC[C@H](Nc1nc(NCc2cccnc2)c2ncn(C(C)C)c2n1)[C@@H](C)O [[A3]]          IC50        1.88
2  CC[C@H](Nc1nc(NCc2cnc(C)cc2C)c2ncn(C(C)C)c2n1)[C@@H](C)O [Compound [1]]          IC50        22.5
3  CC[C@@H](Nc1nc(NCc2cccnc2)c2ncn(C(C)C)c2n1)C(C)(C)O [Compound [A1]]          IC50        1.63
4  CC[C@H](Nc1nc(NCc2cccnc2)c2ncn(C(C)C)c2n1)C(C)(C)O [[A2]]          IC50        0.48

---

Molecular target: CYP3A4 (Homo sapiens (Human), UniProt P08684)
Sequence (P08684 whole entry): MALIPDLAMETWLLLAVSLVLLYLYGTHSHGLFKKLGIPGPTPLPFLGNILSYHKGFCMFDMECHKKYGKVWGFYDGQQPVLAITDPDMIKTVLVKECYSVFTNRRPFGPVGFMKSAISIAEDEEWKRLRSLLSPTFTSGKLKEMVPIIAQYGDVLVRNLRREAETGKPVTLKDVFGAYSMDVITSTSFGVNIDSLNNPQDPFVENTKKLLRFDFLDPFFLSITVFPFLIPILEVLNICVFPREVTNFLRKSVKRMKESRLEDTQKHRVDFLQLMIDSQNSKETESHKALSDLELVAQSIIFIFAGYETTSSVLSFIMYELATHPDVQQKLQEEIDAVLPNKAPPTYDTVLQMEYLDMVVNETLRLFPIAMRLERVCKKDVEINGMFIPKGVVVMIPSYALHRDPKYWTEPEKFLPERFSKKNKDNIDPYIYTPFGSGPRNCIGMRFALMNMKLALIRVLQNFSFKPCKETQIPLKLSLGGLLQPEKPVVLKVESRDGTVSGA
Experiment: Cytochrome P450 substrate identification (Bactosomes) CYP3A4
Type: in vitro ADME
Conditions: human, pH 7.4; Bactosomes, 5 μM test compound, up to 45 min; read-out: half life in the presence of CYP3A4
// reported half-life at 5 μM for each item listed
MEASURE NAME: half-life at 5 μM (min)

> print(dat)
                                   compound  display.unit  relation  test.value
1  CC[C@H](Nc1nc(NCc2cccnc2)c2ncn(C(C)C)c2n1)[C@@H](C)O [[A3]]           min         =          18
2  CC[C@H](Nc1nc(NCc2cnc(C)cc2C)c2ncn(C(C)C)c2n1)[C@@H](C)O [Compound [1]]           min         >          45
3  CC[C@H](Nc1nc(NCc2cccnc2)c2ncn(C(C)C)c2n1)C(C)(C)O [[A2]]           min         =        32.6
4  CC[C@@H](Nc1nc(NCc2cccnc2)c2ncn(C(C)C)c2n1)C(C)(C)O [Compound [A1]]           min         =        28.3

---

Molecular target: CDK2/cyclin A (Homo sapiens (Human), UniProt P24941)
Assay: In-vitro recombinant kinase assay CDK2/cyclin A
Format: biochemical
Details: Table 4, Run 2; read-out: CDK2A Run 2
pIC50: −log10 of the molar value.
MEASURE NAME: pIC50

> print(dat)
                                   compound  measure.name  test.value
1  CC(C)n1cnc2c(NCc3cccnc3)nc(NCC(O)(C(F)(F)F)C(F)(F)F)nc21 [[18]]         pIC50        5.92
2  CCC(Nc1nc(NCc2ccc(C(F)(F)F)nc2)c2ncn(C(C)C)c2n1)C(O)C(F)(F)F (centres unmarked) [[17]]         pIC50        6.37
